# assay.target: WT STING (Homo sapiens (Human), UniProt Q86WV6, H232R)
# Sequence (Q86WV6 whole entry H232R): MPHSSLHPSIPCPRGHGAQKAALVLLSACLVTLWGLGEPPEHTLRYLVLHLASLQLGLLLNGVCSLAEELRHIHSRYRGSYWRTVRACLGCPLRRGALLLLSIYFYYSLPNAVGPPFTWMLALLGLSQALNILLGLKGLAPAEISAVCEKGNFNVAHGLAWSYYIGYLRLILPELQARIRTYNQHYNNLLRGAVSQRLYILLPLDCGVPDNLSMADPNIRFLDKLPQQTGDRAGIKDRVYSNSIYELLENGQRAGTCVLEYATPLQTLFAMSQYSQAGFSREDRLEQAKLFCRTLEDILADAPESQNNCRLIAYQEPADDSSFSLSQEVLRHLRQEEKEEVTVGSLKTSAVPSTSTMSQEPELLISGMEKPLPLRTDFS
# Type: cell-based
# condition.description: with digitonin; read-out: STING-293T cell EC50 (μM) Reporter with digitonin (B)
Structures can show the parent of a compound that is named as a salt.
measured.attribute: EC50 (µM)
Give bare numbers, in µM.

Sample Nc1ncnc2c1ncn2[C@@H]1O[C@@H]2COP(=O)(O)O[C@@H]3[C@H](O)[C@@H](COP(=O)(S)O[C@H]2[C@H]1F)O[C@H]3n1cc(F)c2c(=O)[nH]cnc21 (stereo partly shown) [Example 3a, Disodium Salt] — what was its EC50?
0.13

###

# assay.target: WT STING (Homo sapiens (Human), UniProt Q86WV6, H232R)
# Type: cell-based
measured.attribute: activity level against WT STING of test compound (30 μM)
Reply with the number and its unit after it.

Here are 3 compounds together with their reported answers.
Sample `Nc1nc2c(ncn2[C@@H]2O[C@@H]3COP(=O)(O)O[C@H]4[C@@H](O)[C@H](c5cnn6c(N)ncnc56)O[C@@H]4COP(=O)(O)O[C@@H]2[C@@H]3O)c(=O)[nH]1` — what was its activity level against WT STING of test compound (30 μM)?
99%

Item: `Nc1nc2c(ncn2[C@@H]2O[C@@H]3COP(=O)(O)O[C@@H]4[C@H](O)[C@@H](COP(=O)(O)O[C@H]3[C@H]2F)O[C@H]4n2cc(F)c3c(=O)[nH]cnc32)c(=O)[nH]1`
101%

Item: Nc1ncnc2c1ncn2[C@@H]1O[C@@H]2COP(=O)(O)O[C@@H]3[C@H](O)[C@@H](COP(=O)(S)O[C@H]2[C@H]1F)O[C@H]3n1cc(F)c2c(=O)[nH]cnc21 (stereo partly shown)
112%

Now for the compound whose activity level against WT STING of test compound (30 μM) we want.
Sample Nc1ncnc2c1ncn2[C@@H]1O[C@@]23CO[C@@H]1[C@@H]2OP(=O)(S)OC[C@H]1O[C@@H](n2cc(F)c4c(=O)[nH]cnc42)[C@H](OP(=O)(O)OC3)[C@@H]1O (stereo partly shown) — what was its activity level against WT STING of test compound (30 μM)?
110%

###

# protocol.notes: Human plasma stability assay
# Type: in vitro ADME
# condition.description: 37° C., 0-24 hours, LC/MS/MS
# Method: The compound was incubated in heparinized human plasma at 37° C. for 0, 1, 2, 4, 8 and 24 hours, and the change in compound concentration was measured by LC/MS/MS method. The elimination rate constant (=k(/h)) was calculated based on the fitted curve assuming the exponential decrease of concentration as follows; concentration at time x=initial concentration*exp(−k*x).
Where a name gives a salt, the structure may show the parent alone.
measured.attribute: Human plasma stability (/h), elimination rate constant k (h⁻¹)
Numbers only, in h⁻¹.

Sample Nc1nc2c(ncn2[C@@H]2O[C@@H]3COP(=O)(O)O[C@H]4[C@@H](O)[C@H](n5cnc6c(N)ncnc65)O[C@@H]4COP(=O)(O)O[C@@H]2[C@@H]3O)c(=O)[nH]1 [cGAMP, 2′,3′-cGAMP, reference compound] — what was its Human plasma stability (/h), elimination rate constant k?
1.39

Now for the compound whose Human plasma stability (/h), elimination rate constant k we want.
Sample Nc1ncnc2c1ncn2[C@@H]1O[C@@H]2COP(=O)(O)O[C@@H]3[C@H](O)[C@@H](COP(=O)(S)O[C@H]2[C@H]1F)O[C@H]3n1cc(F)c2c(=O)[nH]cnc21 (stereo partly shown) [Example 3a, Disodium Salt] — what was its Human plasma stability (/h), elimination rate constant k?
0.58
